Source of measurements: paper PMC10247784

Property: RLU; scope: individual compounds
target: human TAS2R14 (Homo sapiens); construct: expressed in transfected cells; host or cells: HEK293T-Gα16gust44; experiment: Calcium imaging assay (FLIPR), HEK293T-Gα16gust44 cells transfected with human TAS2R14; type: cell-based; conditions: TAS2R14 trace; Time (s) 32.797 (Chenodeoxycholic Acid 32.781)
Sequence (Q9NYV8 whole entry): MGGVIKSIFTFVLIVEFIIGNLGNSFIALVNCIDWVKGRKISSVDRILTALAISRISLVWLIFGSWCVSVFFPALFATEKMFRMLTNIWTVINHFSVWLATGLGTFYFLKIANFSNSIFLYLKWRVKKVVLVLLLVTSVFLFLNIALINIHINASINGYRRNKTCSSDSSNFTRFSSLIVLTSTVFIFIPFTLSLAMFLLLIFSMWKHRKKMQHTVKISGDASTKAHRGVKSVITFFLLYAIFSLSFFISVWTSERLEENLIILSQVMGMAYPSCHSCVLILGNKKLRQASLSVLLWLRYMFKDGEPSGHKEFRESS
Param answer (str): number followed by unit.

[in] For C[C@H](CCC(=O)NCCS(=O)(=O)O)[C@H]1CC[C@H]2[C@@H]3[C@H](O)C[C@@H]4C[C@H](O)CC[C@]4(C)[C@H]3C[C@H](O)[C@]12C [Taurocholic Acid, taurocholic acid] , write its RLU.
[out] 30.1537 RLU

[in] For C[C@H](CCC(=O)O)[C@H]1CC[C@H]2[C@@H]3[C@H](O)C[C@@H]4C[C@H](O)CC[C@]4(C)[C@H]3C[C@H](O)[C@]12C [Cholic Acid, cholic acid] , write its RLU.
[out] 99 RLU

[in] For C[C@H](CCC(=O)O)[C@H]1CC[C@H]2[C@@H]3[C@H](O)C[C@@H]4C[C@H](O)CC[C@]4(C)[C@H]3CC[C@]12C [Chenodeoxycholic Acid, chenodeoxycholic acid] , write its RLU.
[out] 237.826 RLU

Further cases:
[in] For C[C@H](CCC(=O)NCC(=O)O)[C@H]1CC[C@H]2[C@@H]3[C@H](O)C[C@@H]4C[C@H](O)CC[C@]4(C)[C@H]3C[C@H](O)[C@]12C [Glycocholic Acid, glycocholic acid] , write its RLU.
[out] 58.2752 RLU

[in] For C[C@H](CCC(=O)NCCS(=O)(=O)O)[C@H]1CC[C@H]2[C@@H]3CC[C@@H]4C[C@H](O)CC[C@]4(C)[C@H]3CC[C@]12C [Taurolithocholic Acid, taurolithocholic acid] , write its RLU.
[out] 14.5625 RLU
